Molecular target: APJ (orphan G protein-coupled receptor protein)
Sequence (P35414 whole entry): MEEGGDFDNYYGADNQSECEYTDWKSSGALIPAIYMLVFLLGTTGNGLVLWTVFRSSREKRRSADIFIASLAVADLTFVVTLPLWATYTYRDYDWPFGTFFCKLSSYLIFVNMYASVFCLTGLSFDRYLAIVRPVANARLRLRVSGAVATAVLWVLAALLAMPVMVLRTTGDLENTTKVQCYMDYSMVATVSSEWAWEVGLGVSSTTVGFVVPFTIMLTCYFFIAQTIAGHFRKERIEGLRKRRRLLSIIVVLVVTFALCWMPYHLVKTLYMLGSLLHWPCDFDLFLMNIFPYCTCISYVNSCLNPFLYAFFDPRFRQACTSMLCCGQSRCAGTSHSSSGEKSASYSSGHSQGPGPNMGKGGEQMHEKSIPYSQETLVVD
Test: radioligand competition, compound of Ref. Ex. 2 as labelled ligand, CHO-A10 membrane fraction
pIC50: −log10 of the molar value. Non-standard residues stand in square brackets, D forms with d. No end group written: not given here. *: point of attachment. pGlu = O=C1CC[C@@H](C(=O)O)N1; Morpholide = C1CN(*)CCO1
readout.kind: pIC50

Consider the following illustrative entries.
[[record]]
binder = "XRPRLSHKGPXPF (N-terminal pGlu; Cha non-natural residue; peptide derivative; Xaa on the 1st position means pGlu.; Xaa on the 11th position means Cha.) [pGlu-Arg-Pro-Arg-Leu-Ser-His-Lys-Gly-Pro-Cha-Pro-Phe]"
readout_kind = "pIC50"
value_observed = 9.80

[[record]]
binder = "RPRLSHKGPMX (C-terminal Cha; peptide derivative; Xaa means Cha) [Arg-Pro-Arg-Leu-Ser-His-Lys-Gly-Pro-Met-Cha]"
readout_kind = "pIC50"
value_observed = 9.29


A. RRQRPRLSARG-Morpholide [Arg-Arg-Gln-Arg-Pro-Arg-Leu-Ser-Ala-Arg-Gly-Mor]
B. RPRLSHKGPMPX (C-terminal Cha; peptide derivative; Xaa means Cha) [Arg-Pro-Arg-Leu-Ser-His-Lys-Gly-Pro-Met-Pro-Cha]
q: Select one: A or B . Criterion: greater recorded pIC50. Let me know the label of the one you choose.
a: A

I. [pGlu]RPRLFRRGPMPF [pGlu-Arg-Pro-Arg-Leu-Phe-Arg-Arg-Gly-Pro-Met-Pro-Phe]
II. XRPRLSAKGPMPF (N-terminal pGlu; peptide derivative; Xaa means pGlu) [pGlu-Arg-Pro-Arg-Leu-Ser-Ala-Lys-Gly-Pro-Met-Pro-Phe]
q: Compare pIC50: is it lower for I or for II ? Let me know the label of the one you choose.
a: I

Attribution: patent US20040116336A1
